These measurements were taken from patent EP4455142A1.

- Tested on: pyroglutamylated CD47
- PROCEDURE_SUMMARY: Assay 3 - cell-based potency assay (pyroglutamylation in live cells, total CD47/pE-CD47 dual staining, FACS)
- Parameters: species or system human
- CONDITION_PARAMETERS: Homo sapiens, KBM-7, 72 h, IC50 of CC2C6 signal; KBM7 cells, 72 hours incubation
- Description: Cells were spun for 4 minutes at 1500 rpm and washed once with PBS / 0.5% BSA. […] In order to test compounds for their effect on pyroglutamylation in live cells, 25000 KBM7 cells per well were seeded in a 96-well U-bottom plate in 150 µl IMDM / 10% FCS / 1% Pen / Strep medium and a 10-point 2-fold dilution range of test compounds. After 72 hours incubation at 37°C, 5% COz, cells were stained for total CD47 and pE-CD47 and analysed on a BD Celesta using FACS Diva software (BD Biosciences). […]

COMPOUND: O=C1OC[C@H](c2ccc(-c3nc(C(F)(F)F)cs3)cc2F)N1c1ccc2[nH]cnc2c1 [(9)]
IC50: 622 nM

COMPOUND: O=C1OC[C@H](c2ccc(-c3cnn(C(F)(F)F)c3)cc2F)N1c1ccc2[nH]cnc2c1 [Compound (1)]
IC50: 92.1 nM

COMPOUND: O=C1OC[C@H](c2ccc(-c3cc(C(F)(F)F)no3)cc2F)N1c1ccc2[nH]cnc2c1 [(11)]
IC50: 252 nM
